Protocol Details: chemical genetic growth profiling, strain panel (AID 1159580);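 also: tested at 20 µM; growth read once vehicle control cultures reached saturation at 30 °C; 1 = growth at the plate median or of vehicle wells; lower values mean less growth of the strain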
Experimental Conditions: S. cerevisiae deletion strains, growth OD, locus YNR049C, strain mso1, active compounds read low
Out of some 5,500 compounds screened, about 2,000 (36%) were called active. About 18% were inconclusive and are not listed. The list shows a part of the results.
Recorded Endpoint: normalized growth
Number only, no unit.

Check out these entries, answers already filled in.
Cc1cc(O)c2c(c1O)C(=O)c1c(O)cc(C)c(O)c1C2=O ... 0.965
CC(C)(O)CC[C@@H](O)[C@](C)(O)C1CC[C@@]2(O)C3=CC(=O)C4C[C@@H](O)[C@@H](O)C[C@]4(C)C3CC[C@]12C (some centres not stated) ... 0.991
CC(=O)Oc1ccc2c(c1)CCC1C2CCC2(C)C1CC(OC(C)=O)C2OC(C)=O (configuration not stated) ... 1
CSCCC(NC=O)C(=O)NC(CC(C)C)C(=O)NC(Cc1ccccc1)C(=O)O (configuration not stated) ... 0.998
O=C1OC(=O)C2C3CCC(O3)C12 (configuration not stated) ... 1.01

## Task Which measured normalized growth value corresponds to O=C1c2ccccc2C(=O)c2c1ccc(O)c2O ?
## Result 0.659

## Task Next compound up: CC(=O)OC1CCC2C3CCc4cc(O)ccc4C3CCC12C (configuration not stated)
## Result 1.01

## Task Next compound up: O=C(/C=C/C(=O)Oc1ccccc1C(=O)O)Oc1ccccc1C(=O)O
## Result 0.985

----------
Protocol Details: chemical genetic growth profiling, strain panel (AID 1159580);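 also: tested at 20 µM; growth read once vehicle control cultures reached saturation at 30 °C; 1 = growth at the plate median or of vehicle wells; lower values mean less growth of the strain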
Experimental Conditions: S. cerevisiae deletion strains, growth OD, locus YGR252W, strain gcn5
The campaign covered roughly 5,500 compounds. About 2,000 (36%) were called active. Inconclusive results (about 18%) are left out. No stated cut-off is given here; in the data, active means normalized growth mostly below about 0.91 (no sharp cut-off); inconclusive means no clear call, values can overlap the other calls; inactive means mostly above about 0.92. The list shows a part of the results.
Valid outcomes are listed here; reply with one: label 1 (active), label 0 (inactive)

Some solved entries appear below for comparison.
COc1ccc2[nH]cc(CCNC(C)=O)c2c1 ... label 0
c1ccc2c(c1)[nH]c1cnccc12 ... label 0
COc1c2occc2cc2ccc(=O)oc12 ... label 0
CCCc1nc(C(C)(C)O)c(C(=O)OCc2oc(=O)oc2C)n1Cc1ccc(-c2ccccc2-c2nn[nH]n2)cc1 ... label 0
COC(=O)C[C@H]1C(C)(C)C(OC(C)=O)[C@]2(O)C=C3C4CC(=O)O[C@@H](c5ccoc5)[C@]4(C)CCC3[C@@]1(C)C2=O (stereo partly drawn) ... label 0

## Task Per the records of this test, what outcome belongs to COc1cc(O)c(C(=O)O)c(O)c1 ?
## Result label 0

## Task Next compound up: CC(C)=CCOc1cc2oc(=O)ccc2cc1O
## Result label 1

## Task Next compound up: CN1CCN(CCCN2c3ccccc3Sc3ccc(Cl)cc32)CC1
## Result label 1

## Task Next compound up: c1coc(CNc2ncnc3nc[nH]c23)c1
## Result label 0

## Task Next compound up: Nc1ncnc2nc[nH]c12
## Result label 1

## Task Next compound up: CC(C)=CCOc1c2occc2cc2ccc(=O)oc12
## Result label 1

----------
Protocol Details: chemical genetic growth profiling, strain panel (AID 1159580);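 also: tested at 20 µM; growth read once vehicle control cultures reached saturation at 30 °C; 1 = growth at the plate median or of vehicle wells; lower values mean less growth of the strain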
Experimental Conditions: S. cerevisiae deletion strains, growth OD, locus YDR001C, strain nth1
Screen size: about 5,500 compounds; about 2,000 (36%) were called active. Another 18% or so got no clear call; they are omitted. Cut-off read from the data, not from the text of the source: active = normalized growth mostly below about 0.91 (no sharp cut-off); inconclusive = no clear call, values can overlap the other calls; inactive = mostly above about 0.92. This is one part of the list.
Valid outcomes are listed here; reply with one: label 1 = active, label 0 = inactive

Some solved entries appear below for comparison.
CCCCC(=O)O[C@H]1CCC2C3CCc4cc(O)ccc4C3CC[C@@]21C (stereo partly specified) ... label 0
COc1cc2ccc(=O)oc2c(OC)c1OC ... label 0
CC(C)=CCOc1c2occc2cc2ccc(=O)oc12 ... label 1
C[C@]12CCC3c4ccc(O)cc4CCC3C1CC[C@@H]2OC(=O)CCC1CCCC1 (stereo partly specified) ... label 0
CCCCCN=C(N)N/N=C\c1c[nH]c2ccc(OC)cc12 ... label 0

Alright, here's another molecule for you.
## Task Per the records of this test, what outcome belongs to CC(=O)Oc1ccc2c(c1)CCC1C2CC[C@@]2(C)C1CC[C@@H]2OC(C)=O (stereo partly specified) ?
## Result label 0
